SYSTEM_NAME: DA transporter (h) (Homo sapiens, UniProt Q01959)
Construct: expressed in transfected cells; host or cells: CHO cells
Sequence (Q01959 whole entry): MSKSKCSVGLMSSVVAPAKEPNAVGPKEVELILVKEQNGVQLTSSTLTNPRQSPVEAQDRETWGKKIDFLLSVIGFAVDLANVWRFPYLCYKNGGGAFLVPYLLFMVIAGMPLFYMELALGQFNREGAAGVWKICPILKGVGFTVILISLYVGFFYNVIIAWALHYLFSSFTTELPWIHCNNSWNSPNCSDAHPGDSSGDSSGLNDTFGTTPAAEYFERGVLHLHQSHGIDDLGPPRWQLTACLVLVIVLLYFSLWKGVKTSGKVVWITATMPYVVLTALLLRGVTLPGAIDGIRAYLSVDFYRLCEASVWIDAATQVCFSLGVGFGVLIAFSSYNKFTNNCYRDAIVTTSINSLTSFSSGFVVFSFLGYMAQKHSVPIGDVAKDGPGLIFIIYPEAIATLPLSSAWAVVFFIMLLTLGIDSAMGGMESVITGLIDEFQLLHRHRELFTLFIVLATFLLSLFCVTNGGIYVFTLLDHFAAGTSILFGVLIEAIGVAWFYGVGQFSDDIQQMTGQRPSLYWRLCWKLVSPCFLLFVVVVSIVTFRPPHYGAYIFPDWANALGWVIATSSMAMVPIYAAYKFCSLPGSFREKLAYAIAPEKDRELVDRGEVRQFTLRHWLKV
TEST_METHOD_NOTES: DA transporter (h) binding, [3H]GBR12935
CONDITION_LABEL: Table 3, human recombinant CHO cells, [3H]-GBR 12935; read-out: Human Transporter Binding IC50 DA
Provide the reported pIC50 of each item.
// scale note: pIC50 = -log10(conc_M); give the bare number

Looking up CNCCC[C@@]1(c2ccc(F)cc2)OCc2cc(C#N)ccc21 [(S)(+)-Desmethylcitalopram] , I found its pIC50 recorded as 4.56

Looking up CNCCC[C@]1(c2ccc(F)cc2)OCc2cc(C#N)ccc21 [(R)(−)-Desmethylcitalopram] , I found its pIC50 recorded as 4.42

Looking up N#Cc1ccc2c(c1)CO[C@]2(CCCN)c1ccc(F)cc1 [(R)(−)-Didesmethylcitalopram] , I found its pIC50 recorded as 4.41

Looking up N#Cc1ccc2c(c1)CO[C@@]2(CCCN)c1ccc(F)cc1 [(S)(+)-Didesmethylcitalopram] , I found its pIC50 recorded as 4.26
